Data credit: patent US12246005B2

# method: Previous preclinical work in dogs defining maximum exposure limits
# experimental parameters: dog, in vivo, read-out: maximum exposure limit AUC
quantity kind: AUC (ng·h/mL)
Kindly provide the numeric value in ng·h/mL only, without the unit symbol.

Q. Item under review: COc1ccc2[nH]cc(CCN(C)C)c2c1 . Reported AUC?
A. 220
